# assay target: Beta-secretase 1 (Homo sapiens, UniProt P56817)
# Sequence (P56817 whole entry): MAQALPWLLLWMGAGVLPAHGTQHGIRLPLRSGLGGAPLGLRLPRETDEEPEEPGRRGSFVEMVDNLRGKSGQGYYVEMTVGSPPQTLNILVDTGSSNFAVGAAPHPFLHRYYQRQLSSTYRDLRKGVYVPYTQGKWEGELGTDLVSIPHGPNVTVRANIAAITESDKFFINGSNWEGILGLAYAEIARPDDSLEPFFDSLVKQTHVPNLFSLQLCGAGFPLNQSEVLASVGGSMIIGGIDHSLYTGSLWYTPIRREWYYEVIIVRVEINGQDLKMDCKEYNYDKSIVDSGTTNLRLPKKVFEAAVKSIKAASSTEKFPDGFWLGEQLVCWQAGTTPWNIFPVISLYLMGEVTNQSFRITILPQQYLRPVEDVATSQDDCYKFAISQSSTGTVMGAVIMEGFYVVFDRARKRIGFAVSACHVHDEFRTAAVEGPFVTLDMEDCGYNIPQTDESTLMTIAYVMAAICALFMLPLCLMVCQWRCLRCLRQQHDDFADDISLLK
Please assign Not met whenever Ki is at or above 3 µM, and Met whenever it is below.

For this compound, is Ki lower than 3 µM? CSCC[C@@H](NC(=O)[C@@H](NC(=O)OC(C)(C)C)C(C)C)C(=O)CN[C@@H](CC(C)C)[C@@H](O)C[C@@H](C)C(=O)NC(C(=O)NCc1ccccc1)C(C)C (single isomer, unassigned)
Met

Lab note: confirm whether the reported Ki for this compound is below 3 µM, equality not counting. compound: CC(C)C[C@H](NCC(=O)[C@H](CC(N)=O)NC(=O)OC(C)(C)C)[C@@H](O)C[C@@H](C)C(=O)N[C@H](C(=O)NCc1ccccc1)C(C)C
Not met

Item CSC[C@@H](NC(=O)[C@@H](NC(=O)OC(C)(C)C)C(C)C)C(=O)CN[C@@H](CC(C)C)[C@@H](O)C[C@@H](C)C(=O)N[C@H](C(=O)NCc1ccccc1)C(C)C : Ki beneath 3 µM, strictly?
Not met

Strictly below 3 µM in Ki? CC(C)C[C@H](NCC(=O)[C@H](CC(N)=O)NC(=O)[C@@H](NC(=O)OC(C)(C)C)C(C)C)[C@@H](O)C[C@@H](C)C(=O)N[C@@H](C)C(=O)NCc1ccccc1
Not met

Is Ki strictly under 3 µM for the entry CSCC[C@@H](NC(=O)[C@@H](NC(=O)OC(C)(C)C)C(C)C)C(=O)CN[C@@H](CC(C)C)[C@@H](O)C[C@@H](CC(C)C)C(=O)N[C@@H](C(=O)NCc1ccccc1)C(C)C ?
Not met

The reported numbers originate from ChEMBL document CHEMBL3045025.
